Tested on: Chang liver cells (human liver cells, normal cell line)
Assay: MTT cytotoxicity test, Chang liver normal cells
Assay type: cell-based
Settings: 48 h incubation
In this section, each of the molecules is paired with its reported pIC50.
Scale for pIC50: -log10 of concentration given in mol/L; no unit attached.

Sample records with pIC50:
CCOP(=O)(OCC)C(c1cc(C(C)(C)C)c(O)c(C(C)(C)C)c1)c1ccc(NC(=O)Nc2ccc(C)cc2)cc1NC(=O)Nc1ccc(C)cc1 (stereo not drawn) [14b]	4.68
CNC(=O)c1cc(Oc2ccc(NC(=O)Nc3ccc(Cl)c(C(F)(F)F)c3)cc2)ccn1 [SF, sorafenib, reference compound]	4.66
CCOP(=O)(OCC)C(c1cc(C(C)(C)C)c(O)c(C(C)(C)C)c1)c1ccc(NC(=O)Nc2ccc(Cl)cc2)nc1NC(=O)Nc1ccc(Cl)cc1 (stereo not drawn) [11b]	4.00

--- query ---
Problem: Query for Chang liver cells (human liver cells, normal cell line): what pIC50 does the record show for CCOP(=O)(OCC)C(c1cc(C(C)(C)C)c(O)c(C(C)(C)C)c1)c1ccc(NC(=O)Nc2cccc(C)c2)cc1NC(=O)Nc1cccc(C)c1 (stereo not drawn) [13b] ?
Solution: 4.17
